# Protocol description: Blood hydroxytyrosol after oral administration with EGCG or EGC (Example 1, HPLC)
# Type: in vivo, SD (IGS) male rats
# Assay conditions: male, SD (IGS), rat, rats, hydroxytyrosol 50 mg/kg alone (control), plasma, read-out: AUC of hydroxytyrosol (amount absorbed in the body)
Observed property: AUC (ng·h/mL)
Enter your answer as a number in ng·h/mL; do not include the unit.

Task item: Query: AUC; subject: OCCc1ccc(O)c(O)c1 [hydroxytyrosol, 3,4-dihydroxyphenylethanol]
Reply: 12000
